Data origin: ChEMBL document CHEMBL5674860

Test system: Colon cancer organoid
procedureDetails: Optimized Dual-Glo assay to identify co-culture induced drug vulnerabilities using donated chemical probes and chemogenomics kinase set in O06 CRC organoid and F06 CAF mono and co-culture. […] Cell viability is reported both mono and co-culture models.
Type: functional, Homo sapiens
Parameters: dose or concentration left out as unconfirmed
conditionContext: Culture type Mono-Culture; Transduced with Renilla-dsRed lentivirus
So I've got a bunch of compounds here, and I need their Cell Viability values.
One number for each entry, in %.

Required: Cell Viability, one value per compound below.
1. CN1CCN(c2ccc(OC(F)(F)F)c(Nc3ncc4c(n3)-c3c(c(C(N)=O)nn3CCO)CC4)c2)CC1
2. CN([C@@H]1CCc2c(CC(=O)O)c3cc(S(C)(=O)=O)ccc3n2C1)S(=O)(=O)c1ccc(F)cc1 [CRTH2-negative-control]
3. CCC(=N\O)/C(C)=C/c1ccc(F)c(C)c1
4. CNC(=O)c1ccccc1Nc1cc(Nc2ccc(N3CCOCC3)cc2OC)ncc1C(F)(F)F
5. Cc1ccc(-c2cnc([C@@]3(O)CC[C@H](C(=O)O)C(C)(C)C3)s2)cc1Nc1cccc(C(F)(F)F)n1
6. COc1cc(-c2cn([C@H]3CCc4c(F)cccc4N(CC(F)(F)F)C3=O)nn2)ccc1-n1cnc(C)c1

Output:
1. 93.5315
2. 104.475
3. 100.434
4. 48.5863
5. 87.8946
6. 111.054

###

So I've got a bunch of compounds here, and I need their Cell Viability values.
Tested on: Colon cancer organoid
procedureDetails: Optimized Dual-Glo assay to identify co-culture induced drug vulnerabilities using donated chemical probes and chemogenomics kinase set in O06 CRC organoid and F06 CAF mono and co-culture. […] Cell viability is reported both mono and co-culture models.
Assay type: functional, Homo sapiens
Design: dose or concentration left out as unconfirmed
conditionContext: Culture type Mono-Culture; Transduced with Renilla-dsRed lentivirus
Square brackets hold non-standard residues; d marks the D form. Peptide text beside a SMILES is read from it. Arg(Me) = CNC(=N)NCCC[C@H](N)C(=O)O; d4Pal = N[C@H](Cc1ccncc1)C(=O)O; azaGly = NNC(=O)O
Give bare numbers, in %.

{"compound": "CCCCNc1ncc(-c2ccc(CN3CCOCC3)cn2)c(N[C@H]2CC[C@H](O)CC2)n1", "unit": "%", "Cell Viability": 77.4775}

Required: Cell Viability, one value per compound below.
1. Cc1cccc(-c2cnc3occ(-c4ccc(C(=O)O)c(C5CCCC5)c4)c3c2)c1
2. CC(=O)c1cc(-c2ccccc2OCC2CC2)c2ncccn12

Output:
1: 116.796; 2: 95.3402

Required: Cell Viability, one value per compound below.
1. CCOc1cc(N2CCC(O)CC2)ccc1Nc1ncc2c(n1)N(C1CCCC1)CCC(=O)N2C
2. Cn1cc(CCn2cnc(-c3cnn(C)c3)c2-c2ccc(C#N)cc2)cn1

Output:
1: 184.932; 2: 99.9578

Required: Cell Viability, one value per compound below.
1. CC(C)Oc1ccc(-c2c[nH]cc2CN(C)CCO)cc1
2. Cc1cc2c(-c3ccco3)cnc(N[C@H]3CCN(C)C[C@@H]3C(=O)NC3CCCCC3)c2[nH]c1=O
3. CCN(CC)S(=O)(=O)Nc1cccc(-c2ccc3c(NC(=O)C4CC4)n[nH]c3c2)c1
4. CNC(=N)NCCC[C@H](NC(=O)[C@H](CC(C)C)NC(=O)NNC(=O)[C@H](Cc1ccccc1)NC(=O)[C@H](CO)NC(=O)[C@H](CC(N)=O)NC(=O)[C@@H](Cc1ccncc1)NC(=O)[C@H](N)Cc1ccc(O)cc1)C(=O)N[C@@H](Cc1ccccc1)C(N)=O [KISS1-305] (H-[dY][d4Pal]NSF[azaGly]L[Arg(Me)]F-NH2)

Output:
[116.102, 92.8694, 111.432, 119.718]

###

System: Colon cancer organoid
procedureDetails: Optimized Dual-Glo assay to identify co-culture induced drug vulnerabilities using donated chemical probes and chemogenomics kinase set in O14 CRC organoid and F14 CAF mono and co-culture. […] Cell viability is reported both mono and co-culture models.
Type: functional, Homo sapiens
Design: dose or concentration left out as unconfirmed
conditionContext: Culture type Mono-Culture; Transduced with Renilla-dsRed lentivirus
Square brackets hold non-standard residues; d marks the D form. Peptide text beside a SMILES is read from it. Arg(Me) = CNC(=N)NCCC[C@H](N)C(=O)O; d4Pal = N[C@H](Cc1ccncc1)C(=O)O; azaGly = NNC(=O)O
quantity: Cell Viability (%)
Answers are plain numbers, in %.

// solved cases for Cell Viability follow
{"compound": "Cc1nc(N2CC[C@H](O)C2)ncc1-c1cc(C(F)(F)F)cc2[nH]ncc12", "Cell Viability / %": 87.4633}
{"compound": "CN(C)[C@H]1CCN(c2cc(-c3ccccc3)nc3ccnn23)C1 [(S)-ZINC-3573]", "Cell Viability / %": 87.5469}
{"compound": "CN1CCN(Cc2cc(NC(=O)c3ccc4c(c3)CN(c3ccccc3)CC4)cc(C(F)(F)F)c2)CC1", "Cell Viability / %": 97.9505}
{"compound": "CCS(=O)(=O)Nc1ccc(Oc2ccc(F)cc2F)c(-c2cn(C)c(=O)c3[nH]ccc23)c1 [MIVEBRESIB]", "Cell Viability / %": 180.439}
{"compound": "COc1ccc2c(c1)O[C@H](c1ccc(OC)c(OC)c1)C[C@@H]2NC(=O)C1(c2ccc3c(c2)OC(F)(F)O3)CC1 [A-1596584]", "Cell Viability / %": 92.2647}

Required: Cell Viability, one value per compound below.
1. Cc1cc(C)cc(C(=O)NOCCCCCC(=O)NO)c1
2. CN1C[C@H](Nc2cnn(C)c(=O)c2Br)C[C@H](c2ccccc2)C1
3. O=C1c2ccc(Nc3ccc(F)cc3F)cc2CCc2ccc(OC[C@H](O)CO)cc21 [Skepinone-L]
4. Cc1c(NC(=O)c2cc(C(N)=O)nc3cc(F)ccc23)c(C(F)(F)F)nn1Cc1ccc(C#N)cc1 [BAY-876]
5. Cc1ccc2nc(NCCN)c3ncc(C)n3c2c1.O=C(O)C(F)(F)F.O=C(O)C(F)(F)F
6. CC(=O)C1=C(C)N(c2cccc(C(F)(F)F)c2)C(=O)N[C@H]1c1ccc(C#N)nc1 [BAY-677]
7. CCc1ccccc1C(=O)Nc1n[nH]c2c(C)c(F)c(C3C(C#N)=C(C)N(C)C(C)=C3C#N)cc12 [BAY-3827]
8. COCCc1ccc(-c2c(C)nc3c(N4CCOCC4)ccnn23)cn1 [JNJ-42396302]

Output:
[262.893, 111.977, 90.897, 63.4994, 109.465, 91.8517, 77.2526, 90.5469]

Required: Cell Viability, one value per compound below.
1. CNC(=N)NCCC[C@H](NC(=O)[C@H](CC(C)C)NC(=O)NNC(=O)[C@H](Cc1ccccc1)NC(=O)[C@H](CO)NC(=O)[C@H](CC(N)=O)NC(=O)[C@@H](Cc1ccncc1)NC(=O)[C@H](N)Cc1ccc(O)cc1)C(=O)N[C@@H](Cc1ccccc1)C(N)=O [KISS1-305] (H-[dY][d4Pal]NSF[azaGly]L[Arg(Me)]F-NH2)
2. C[C@@H](c1cccc(C#N)c1)n1cc(Cl)cc(C(N)=O)c1=N.Cl

Output:
111.321
103.626

###

System: Colon cancer organoid
procedureDetails: Optimized Dual-Glo assay to identify co-culture induced drug vulnerabilities using donated chemical probes and chemogenomics kinase set in O06 CRC organoid and F06 CAF mono and co-culture. […] Cell viability is reported both mono and co-culture models.
Assay type: functional, Homo sapiens
Parameters: dose or concentration left out as unconfirmed
conditionContext: Culture type Mono-Culture; Transduced with Renilla-dsRed lentivirus
So I've got a bunch of compounds here, and I need their Cell Viability values.
One number for each entry, in %.

Required: Cell Viability, one value per compound below.
1. CCS(=O)(=O)c1cc2cc(C[C@](O)(CC(C)(C)c3ccc(F)cc3C(N)=O)C(F)(F)F)[nH]c2cn1
2. Cn1cc(C2=C(c3cn(C4CCN(Cc5ccccn5)CC4)c4ccccc34)C(=O)NC2=O)c2ccccc21
3. C[C@@H](Oc1cc(-n2cnc3ccc(CN4CCN(C)CC4)cc32)sc1C(N)=O)c1ccccc1C(F)(F)F
4. CCOc1ccc(S(=O)(=O)Nc2ccc(Cl)cc2C#Cc2cnc(C(=O)[O-])cc2OC)c2ncccc12.[K+]

Output:
179.661
101.572
91.647
83.0425

###

System: Colon cancer organoid
procedureDetails: Optimized Dual-Glo assay to identify co-culture induced drug vulnerabilities using donated chemical probes and chemogenomics kinase set in O06 CRC organoid and F06 CAF mono and co-culture. […] Cell viability is reported both mono and co-culture models.
Assay type: functional, Homo sapiens
Set-up: dose or concentration left out as unconfirmed
conditionContext: Culture type Co-Culture; Transduced with Renilla-dsRed lentivirus
quantity: Cell Viability (%)
Give bare numbers, in %.

// solved cases for Cell Viability follow
{"smilesInput": "Cc1ccc2nc(NCCN)c3ncc(C)n3c2c1.O=C(O)C(F)(F)F.O=C(O)C(F)(F)F", "unit": "%", "numericResult": 112.188}
{"smilesInput": "CC(=O)c1c(NS(C)(=O)=O)c2cc(-c3ccc(Cl)cc3)c(-c3ccc(Cl)cc3Cl)nc2n(C)c1=O", "unit": "%", "numericResult": 125.307}

Next, consider the following compound.
Input: Can you look up Cell Viability on Colon cancer organoid for Cn1cc(Cl)c2c(Oc3c(F)cc(Nc4cc(Cl)nc(N)n4)cc3F)ccnc21 ?
Output: 149.241
